Kindly state IC50 for each of the entries shown.
- Experimental Details: Inhibition of rat liver NADH:cytochrome bc1 reductase
Form entry: value (mg/L) — number only.

Challenge: // query IC50 value for entry C/C=C/[C@@H]1[C@H]2C[C@@H](C)CC[C@@H]2C(C)=C[C@H]1C(=O)c1c(O)c(-c2ccc(O)cc2)cn(CC#N)c1=O
Response given: 0.8

Challenge: // query IC50 value for entry C/C=C/[C@@H]1[C@H]2C[C@@H](C)CC[C@@H]2C(C)=C[C@H]1C(=O)c1c(O)c(-c2ccc(O)cc2)cn(CC(=O)O)c1=O
Response given: 1

Challenge: // query IC50 value for entry C/C=C/[C@@H]1[C@H]2C[C@@H](C)CC[C@@H]2C(C)=C[C@H]1C(=O)c1c(O)c(-c2ccc(OC(=O)CNC(=O)OCC3c4ccccc4-c4ccccc43)cc2)c[nH]c1=O
Response given: 1

Challenge: // query IC50 value for entry C/C=C/[C@@H]1[C@H]2C[C@@H](COC(=O)C3CC3)CC[C@@H]2C(C)=C[C@H]1C(=O)c1c(O)c(-c2ccc(OC(=O)C3CC3)cc2)c[nH]c1=O
Response given: 0.01

###

Kindly state IC50 for each of the entries shown.
- Experimental Details: Inhibition of rat liver NADH:cytochrome bc1 reductase
Form entry: value (mg/L) — number only.

Challenge: // query IC50 value for entry C/C=C/[C@@H]1[C@H]2C[C@@H](C)CC[C@@H]2C(C)=C[C@H]1C(=O)c1c(O)c(-c2ccc(OCC(=O)OC(C)(C)C)cc2)cn(CC(=O)OC(C)(C)C)c1=O
Response given: 1.6

Challenge: // query IC50 value for entry C/C=C/[C@@H]1[C@H]2C[C@@H](C)CC[C@@H]2C(C)=C[C@H]1C(=O)c1c(O)c(-c2ccc(OC(=O)c3ccccc3)cc2)c[nH]c1=O
Response given: 1

###

- Experimental Details: Inhibition of rat liver NADH:cytochrome bc1 reductase
Observable: IC50

Challenge: // query IC50 value for entry C/C=C/[C@@H]1[C@H]2C[C@@H](COC(C)=O)CC[C@@H]2C(C)=C[C@H]1C(=O)c1c(O)c(-c2ccc(O)cc2)c[nH]c1=O
Response given: > 1600 ng/mL

Challenge: // query IC50 value for entry C/C=C/[C@@H]1[C@H]2C[C@@H](C)CC[C@@H]2C(C)=C[C@H]1C(=O)c1c(O)c(-c2ccc(OC(=O)CC)cc2)c[nH]c1=O
Response given: > 1600 ng/mL

Challenge: // query IC50 value for entry C/C=C/[C@@H]1[C@H]2C[C@@H](COC(=O)CC)CC[C@@H]2C(C)=C[C@H]1C(=O)c1c(O)c(-c2ccc(OC(=O)CC)cc2)c[nH]c1=O
Response given: > 800 ng/mL

Challenge: // query IC50 value for entry C/C=C/[C@@H]1[C@H]2C[C@@H](C)CC[C@@H]2C(C)=C[C@H]1C(=O)c1c(O)c(-c2ccc(OC(=O)c3ccsc3)cc2)c[nH]c1=O
Response given: > 1000 ng/mL

###

Kindly state MIC for each of the entries shown.
- Tested on: Candida albicans
- Experimental Details: Antifungal activity against Candida albicans MY1055 assessed as growth inhibition after 24 hrs by liquid microdilution assay in presence of 10% mouse plasma
- Type: functional

Challenge: // query MIC value for entry C/C=C/[C@@H]1[C@H]2C[C@@H](C)CC[C@@H]2C(C)=C[C@H]1C(=O)c1c(O)c(-c2ccc(O)cc2)cn(CCN(CC)CC)c1=O
Response given: > 1 µg/mL

Challenge: // query MIC value for entry C/C=C/[C@@H]1[C@H]2C[C@@H](C)CC[C@@H]2C(C)=C[C@H]1C(=O)c1c(O)c(-c2ccc(O)cc2)c[nH]c1=O
Response given: > 1 µg/mL

Challenge: // query MIC value for entry CC1=C[C@@H](C(=O)c2c(O)c(-c3ccc(O)cc3)c[nH]c2=O)[C@H]([C@@H]2OC2C)[C@H]2C[C@@H](C)CC[C@H]12 (stereo partly drawn)
Response given: > 1 µg/mL

###

- Experimental Details: Inhibition of rat liver NADH:cytochrome bc1 reductase
Observable: IC50

Challenge: // query IC50 value for entry C/C=C/[C@@H]1[C@H]2C[C@@H](COC(C)=O)CC[C@@H]2C(C)=C[C@H]1C(=O)c1c(O)c(-c2ccc(OC(C)=O)cc2)c[nH]c1=O
Response given: > 0.8 µg/mL

Challenge: // query IC50 value for entry C/C=C/[C@@H]1[C@H]2C[C@@H](C)CC[C@@H]2C(C)=C[C@H]1C(=O)c1c(O)c(-c2ccc(OC(=O)C3CCCCC3)cc2)c[nH]c1=O
Response given: > 1.6 µg/mL

Challenge: // query IC50 value for entry C/C=C/[C@@H]1[C@H]2C[C@@H](CO)CC[C@@H]2C(C)=C[C@H]1C(=O)c1c(O)c(-c2ccc(OC(=O)CC)cc2)c[nH]c1=O
Response given: > 0.8 µg/mL

Challenge: // query IC50 value for entry C/C=C/[C@@H]1[C@H]2C[C@@H](C)CC[C@@H]2C(C)=C[C@H]1C(=O)c1c(O)c(-c2ccc(OC(=O)CCCCNC(=O)OC(C)(C)C)cc2)c[nH]c1=O
Response given: > 1 µg/mL

Challenge: // query IC50 value for entry C/C=C/[C@@H]1[C@H]2C[C@@H](C)CC[C@@H]2C(C)=C[C@H]1C(=O)c1c(O)c(-c2ccc(OC(=O)C3CCCC3)cc2)c[nH]c1=O
Response given: > 0.8 µg/mL

Challenge: // query IC50 value for entry C/C=C/[C@@H]1[C@H]2C[C@@H](C)CC[C@@H]2C(C)=C[C@H]1C(=O)c1c(O)c(-c2ccc(O)cc2)cn(CCN(CC)CC)c1=O
Response given: > 1 µg/mL

Challenge: // query IC50 value for entry C/C=C/[C@@H]1[C@H]2C[C@@H](C)CC[C@@H]2C(C)=C[C@H]1C(=O)c1c(OC)ncc(-c2ccc(O)cc2)c1O
Response given: > 1 µg/mL

Challenge: // query IC50 value for entry C/C=C/[C@@H]1[C@H]2C[C@@H](CO)CC[C@@H]2C(C)=C[C@H]1C(=O)c1c(O)c(-c2ccc(OC(C)=O)cc2)c[nH]c1=O
Response given: > 0.8 µg/mL

Challenge: // query IC50 value for entry C/C=C/[C@@H]1[C@H]2C[C@@H](C)CC[C@@H]2C(C)=C[C@H]1C(=O)c1c(O)c(-c2ccc(OC(=O)C3CCC3)cc2)c[nH]c1=O
Response given: > 0.8 µg/mL

Challenge: // query IC50 value for entry C/C=C/[C@@H]1[C@H]2C[C@@H](C)CC[C@@H]2C(C)=C[C@H]1C(=O)c1c(O)c(-c2ccc(OCC(N)=O)cc2)cn(CC(N)=O)c1=O
Response given: > 1 µg/mL
